Sourced from BigSolDB 2.1

- Assay Context: in n-butanol, 327.95 K
Property Name: solubility (mole fraction)

- Nc1cccnn1: 0.0469

---

- Assay Context: in acetone, 317.85 K
Property Name: solubility (mole fraction)

- Nc1cccnn1: 0.0148
